Study target: T1, canine OX40L, full length membrane form, expressed on HEK293 cells (canine)
T1 construct: also called OX40L expressing HEK; HEK OX40L cells
T1 chain: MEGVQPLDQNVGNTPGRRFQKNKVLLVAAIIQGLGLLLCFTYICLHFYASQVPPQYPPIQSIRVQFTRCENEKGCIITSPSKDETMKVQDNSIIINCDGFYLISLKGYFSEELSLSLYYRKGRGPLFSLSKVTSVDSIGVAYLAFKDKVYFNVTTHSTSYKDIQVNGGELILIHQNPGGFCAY
Protocol text: flow cytometry, OX40L HEK minus WT HEK
Provide the recorded GEO mean difference for the entries that follow.
Numbers only.

Batch: GEO mean difference for all items listed.
1. PMX047 (antibody, V domains shown, also called PMX47) VH: EVQLVESGGDLVKPGGSLRLSCVASGFIFSSYSMSWVRQAPEKGLQLVAGINSAGSSTYYTDAVKGRFTISRDNAKNTVYLQMNSLRAEDTAIYYCAKRWVFDFWGQGTLVTVSS VL: HIVMTQTPLSLSVSPGEPASISCKASQSLLLSYGNTYLYWFRQKPGQSPQRLIYKVSNRDPGVPDRFSGSGSGTDFTLRISRVEADDAGVYYCGQGIQDPFTFGQGTKLEIK
2. PMX048 (antibody, V domains shown, also called PMX48) VH: EVQLVESGGDLVKPGGSLRLSCVASGFTFNNYEMYWVRQAPGKGLEWVARIYESGTTTYSAEADTGRFTISRDNAKNMVFLQMNSLRAEDTAVYYCASASSSTWRFDYWGQGTLVTVSS VL: SYVLTQLPSVSVTLGQTARITCGGDSIGRKNVYWFQQKLGQAPVLIIYDDRSRPSGIPERFSGANSGNTATLTISGALAEDEADYYCQVWDSSTGVFGGGTHLTVL
3. PMX083 (antibody, V domains shown, also called PMX83) VH: EVQLVESGGDLVKPGGSLRLSCVASGFTFRTYHMSWVRQAPGKGLQWVAYITRDGISTTYTDAVKGRFTISRDNAKNTLFLQMNSLRADDTAVYYCASDLVLVLGAPFYWGQGTLVTVSS VL: SYELTQPPSVNVTLGETAHITCGGDSIGRKYVQWIQQNPGQAPVVIIYKDSNRPTGIPERFSGANSGNTATLTISGALAEDEADYYCQVGDSGTKAVFGEGTQLTVL
4. PMX058 (antibody, V domains shown, also called PMX58) VH: EVQLVESGGDLVKPEGSLRLSCVVSDFTFGSYGMSWVRQAPGKGLQWVAYISSDGRSTSYTDAVKGRFTISRDNAKNTLHLQMNSLRTEDTAVYYCAKLGRGFAFGYWGQGTLVTVSS VL: SYVLTQLPSKNVTLKQPAHITCGGDNIGSKSVHWYQQKLGQAPVLIIYYDSNRPTGIPERFSGANSGNTATLTISGALAEDEADYYCQVWDSSASVFGGGTHLTVL
5. PMX035 (antibody, V domains shown, also called PMX35) VH: EVQLVESGGDLVKPGGSLRLSCVASGFTFSNFEMYWVRQAPGKGLEWVARIYKSGSTTYHSERVKGRFTISKDSATNMAFLQMNSLRAEDTAVYYCTSASSTGWRFDYWGQGTLVTVSS VL: SYVLTQLPSVSVTLRQTARITCGGDSIGRKNVCWFQQKLGQAPVLIIYDDNSRPSGIPERFSGANSGNTATLTISGALAEDEADYYCQVWDSSTGIFGGGTHLTVL

[out]
1. 1.92e+06
2. 3.9e+06
3. 690000
4. 3.31e+06
5. 1.38e+06
